# credit: the PolyMetriX glass transition set

measured.property: glass transition temperature (°C)

Before answering, review these 3 worked examples.
{"compound": "*CC(CC)(CC)CO* (repeat unit)", "measured.property": "glass transition temperature", "readout.number": -30.00}
{"compound": "*c1ccc(Oc2ccc(N3C(=O)c4ccc(Oc5ccc(Oc6ccc7c(c6)C(=O)N(*)C7=O)cc5)cc4C3=O)cc2)cc1 (repeat unit)", "measured.property": "glass transition temperature", "readout.number": 241.00}
{"compound": "*c1cc(C)c(-c2c(C)cc(-n3c(=O)c4cc5c(=O)n(*)c(=O)c5cc4c3=O)cc2C)c(C)c1 (repeat unit)", "measured.property": "glass transition temperature", "readout.number": 353.00}

I. *Oc1ccc(NC(=O)c2ccc(C(=O)Nc3ccc(Oc4ccc(C(=O)c5ccc(*)cc5)cc4)cc3)cc2)cc1 (repeat unit)
II. *CC(*)(C)C(=O)OCCCCCCOc1ccc(OC(=O)c2ccc(-c3ccc(OC)cc3)cc2)cc1 (repeat unit)
When their glass transition temperature values are compared, which is larger, I or II ? Your answer should be the label attached to the chosen record.
I
